System: calcium-permeable AMPA receptors (CP-AMPARs)
assay info: Whole-cell patch clamp, block of kainate-induced currents in striatal giant interneurons
Assay type: cell-based, rat
measurement setup: kainate-induced current, −80 mV; read-out: IC50, µM CP-AMPARs
Listed here: items and their measured IC50.
endpoint name: IC50 (µM)

molecule	endpoint name	censoring sign	numeric readout
N=C(N)c1ccc(OCCCCCOc2ccc(C(=N)N)cc2)cc1	IC50	=	43
CN(C)C(=O)COC(=O)Cc1ccc(OC(=O)c2ccc(NC(=N)N)cc2)cc1	IC50	>	100
CCOC(=O)c1ccc(OC(=O)CCCCCNC(=N)N)cc1 [Gabexate]	IC50	>	100
N=C(N)c1ccc2cc(OC(=O)c3ccc(N=C(N)N)cc3)ccc2c1	IC50	=	55
N=C(N)c1ccc2cc(OC(=O)c3ccc(NC4=NCCN4)cc3)ccc2c1 [Sepimostat]	IC50	=	56
N=C(N)c1ccc(-c2cc3ccc(C(=N)N)cc3[nH]2)cc1	IC50	=	27
